Hello, the source for this data is the supplement of paper PMC5908809, in case you need it.

tested on: NK-YS (IL-2 2.5 ng/mL); test: percent inhibition of viability; higher = more inhibition; settings: 72 h; 0.1 nM;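 note: normalised to DMSO-only wells as negative and benzethonium chloride as positive control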
QUANTITY NAME: percent inhibition of viability (%)
Write it as a number; the unit % goes unstated.

COMPOUND	percent inhibition of viability / %
Nc1ccn([C@@H]2O[C@H](CO)[C@@H](O)C2(F)F)c(=O)n1 [Gemcitabine] (max concentration tested 1000 nM)	-3.23
Clc1ccccc1C(c1ccccc1)(c1ccccc1)n1cccn1 [TRAM-34] (max concentration tested 1000 nM)	1.9

Now let's try a different one.
In: Read the entry Cc1ccc(C(=O)N(CCCN)[C@@H](c2oc3cc(Cl)ccc3c(=O)c2Cc2ccccc2)C(C)C)cc1 (max concentration tested 100 nM) and write its reported percent inhibition of viability.
Out: -2.68
